inhibition of SARS-CoV-2 cytopathic effect values by entry
Tested on: Vero E6 infected with SARS-CoV-2
procedure summary: inhibition of SARS-CoV-2 cytopathic effect; higher = more antiviral protection, active = above 15
experimental conditions: 8.33 nM; 48 h
measured endpoint: inhibition of SARS-CoV-2 cytopathic effect (%)

compound	recorded result
N=C(N)NC(=O)c1cnccn1	-6.78
O=C(O)c1cccc(-c2noc(-c3ccccc3F)n2)c1	0.96
CCCCC(F)(F)[C@@]1(O)CC[C@H]2[C@@H](CC(=O)[C@@H]2CCCCCCC(=O)O)O1	-0.13
CCOC(=O)[C@H](Cc1ccc([N+](=O)[O-])cc1)NC(=O)c1ccccc1	1.63
CC(C)(O)c1ccccc1CC[C@@H](SCC1(CC(=O)O)CC1)c1cccc(/C=C/c2ccc3ccc(Cl)cc3n2)c1	0.4
Nc1ccc(S(=O)(=O)Nc2nccs2)cc1	2.25
C/C=C(/C)C(=O)O[C@H]1C(C)=C[C@]23C(=O)[C@@H](C=C(CO)[C@@H](O)[C@]12O)[C@H]1[C@@H](C[C@H]3C)C1(C)C [ingenol-mebutate]	-1.76
Cc1ccc(NC2=CC(=O)c3sc(C)nc3C2=O)cc1	4.18

---

System: Vero E6 infected with SARS-CoV-2
procedure summary: SARS-CoV-2 infection rate relative to infected DMSO; higher = more infection, active = 60 or less
experimental conditions: 24 h
measured endpoint: SARS-CoV-2 infection rate (%)

compound	recorded result
CC(=O)N1CCN(c2ccc(OC[C@@H]3CO[C@@](Cn4ccnc4)(c4ccc(Cl)cc4Cl)O3)cc2)CC1 (racemic) [ketoconazole] (10 µM)	108
CC(C)C[C@H](NC(=O)N1CCCCCC1)C(=O)N[C@H](Cc1cn(C)c2ccccc12)C(=O)N[C@H](Cc1ccccn1)C(=O)O (10 µM)	100
CC[C@H](C)[C@@H]1NC(=O)[C@H](Cc2ccc(OC)cc2)NC(=O)CCCSC[C@@H](C(=O)N2CCC[C@H]2C(=O)N[C@@H](CC(C)C)C(=O)NCC(N)=O)NC(=O)[C@H](CC(N)=O)NC(=O)[C@H](CCC(N)=O)NC1=O [carbetocin] (10 µM)	118
O=C(O)CCNc1cc(N2CCc3ccccc3CC2)nc(-c2ccccn2)n1 (10 µM)	101
CCc1[nH]c(=O)[nH]c1C(=O)c1ccncc1 [piroximone] (10 µM)	100
OCc1cccnc1 [nicotinyl-alcohol-tartrate] (10 µM)	118
CC(C)NCC(O)COc1cccc2[nH]ccc12 (stereo not given) [pindolol] (10 µM)	104
O=C(O)c1cccnc1C(=O)O [quinolinic-acid] (10 µM)	108
Cc1coc2c1C(=O)C(=O)c1c-2ccc2c1CCCC2(C)C [tanshinone-IIA] (10 µM)	102
C[C@H](CCC(=O)O)[C@H]1CC[C@H]2[C@@H]3[C@@H](O)C[C@@H]4C[C@H](O)CC[C@]4(C)[C@H]3CC[C@]12C [ursodiol] (10 µM)	106
C[C@H]1[C@H](C)CC[C@]2(C(=O)O)CC[C@]3(C)C(=CC[C@@H]4[C@@]5(C)C[C@@H](O)[C@H](O)[C@@](C)(CO)[C@@H]5CC[C@]43C)[C@H]12 [asiatic-acid] (10 µM)	108
CCOC(=O)C1=C(N)Oc2ccc(Br)cc2C1C(C#N)C(=O)OCC (stereo not given) (10 µM)	108
CN1CCN2c3c(cccc31)[C@@H]1CN(CCCC(=O)c3ccc(F)cc3)CC[C@@H]12 [lumateperone] (10 µM)	86
Cc1nc(NC(=O)N2CCC[C@H]2C(N)=O)sc1-c1ccnc(C(C)(C)C(F)(F)F)c1 [alpelisib] (10 µM)	113
N[C@@H](CSS(=O)(=O)O)C(=O)O [S-sulfo-L-cysteine] (10 µM)	90

---

System: Vero E6 infected with SARS-CoV-2
procedure summary: inhibition of SARS-CoV-2 cytopathic effect; higher = more antiviral protection, active = above 15
experimental conditions: 8.33 nM; 48 h
measured endpoint: inhibition of SARS-CoV-2 cytopathic effect (%)

compound	tgt	recorded result
O=C(O)c1cc(O)c2c(c1)[C@H]([C@H]1c3cc(C(=O)O)cc(O)c3C(=O)c3c(O[C@@H]4O[C@H](CO)[C@@H](O)[C@H](O)[C@H]4O)cccc31)c1cccc(O[C@@H]3O[C@H](CO)[C@@H](O)[C@H](O)[C@H]3O)c1C2=O [sennoside-A]	Vero E6 infected with SARS-CoV-2	0
COc1ccc(C2CC(c3c(O)cc(C)oc3=O)=NCCS2)c(OC)c1 (configuration not stated)	Vero E6 infected with SARS-CoV-2	3.01
CCC(NC(C)C)C(O)c1ccc(O)c2[nH]c(=O)ccc12 (configuration not stated) [procaterol]	Vero E6 infected with SARS-CoV-2	0.18
CC[N+](CC)(CCCNC1=CC(=O)C(NCCC[N+](CC)(CC)Cc2ccccc2)=CC1=O)Cc1ccccc1 [benzoquinonium-dibromide]	Vero E6 infected with SARS-CoV-2	1.05
Cc1c(N)c(=O)n(-c2ccccc2)n1C [ampyrone]	Vero E6 infected with SARS-CoV-2	-2.95
C[C@H](NC(=O)[C@@H](O)c1cc(F)cc(F)c1)C(=O)N[C@@H]1C(=O)N(C)c2ccccc2-c2ccccc21	Vero E6 infected with SARS-CoV-2	-4.79
O=C(O)/C=C/c1ccc(O)c(O)c1 [caffeic-acid]	Vero E6 infected with SARS-CoV-2	-0.05

---

Test system: Vero E6 infected with SARS-CoV-2
procedure summary: inhibition of SARS-CoV-2 cytopathic effect; higher = more antiviral protection, active = above 15
experimental conditions: 10000 nM; 48 h
measured endpoint: inhibition of SARS-CoV-2 cytopathic effect (%)

molecule	tgt	unit	recorded result
N[C@@H](Cn1ccc(=O)n(Cc2ccccc2C(=O)O)c1=O)C(=O)O	Vero E6 infected with SARS-CoV-2	%	-0.16
CCS(=O)(=O)Nc1ccc2c(c1)/C(=C(/Nc1ccc(CN3CCCCC3)cc1)c1ccccc1)C(=O)N2	Vero E6 infected with SARS-CoV-2	%	-10.5
C[C@@H]1CC(=O)NN=C1c1ccc(NN=C(C#N)C#N)cc1	Vero E6 infected with SARS-CoV-2	%	1.18
O=C(Cc1ccc(-c2ccccc2)cc1)Nc1ccccn1 [difenpiramide]	Vero E6 infected with SARS-CoV-2	%	14.8
O=C(Nc1nc(-c2cc(Cl)cs2)c(N2CCN(C3CCCCC3)CC2)s1)c1cnc(N2CCC(C(=O)O)CC2)c(Cl)c1	Vero E6 infected with SARS-CoV-2	%	-0.97
C[C@H](NC(=O)[C@@H](O)c1cc(F)cc(F)c1)C(=O)N[C@@H]1C(=O)N(C)c2ccccc2-c2ccccc21	Vero E6 infected with SARS-CoV-2	%	-7.15
CNc1cc2c(Nc3cccc(Br)c3)ncnc2cn1	Vero E6 infected with SARS-CoV-2	%	-2.22
CCOc1ccc(-c2ccc(Cn3c(CC(C)(C)C(=O)O)c(SC(C)(C)C)c4cc(OCc5ccc(C)cn5)ccc43)cc2)cn1	Vero E6 infected with SARS-CoV-2	%	-0.78
O=C(Nc1ccc(Cl)cc1)Nc1ccc(Cl)c(Cl)c1	Vero E6 infected with SARS-CoV-2	%	-0.6
O=C(Nc1ccc(C(F)(F)F)cn1)N1CCN(c2ncccc2C(F)(F)F)CC1	Vero E6 infected with SARS-CoV-2	%	-0.71
CNCC(O)c1ccc(O)c(O)c1 (racemic)	Vero E6 infected with SARS-CoV-2	%	-1.47
C[C@@H](O[C@H]1OCCN(Cc2nn(P(=O)(O)O)c(=O)[nH]2)[C@H]1c1ccc(F)cc1)c1cc(C(F)(F)F)cc(C(F)(F)F)c1 [fosaprepitant-dimeglumine]	Vero E6 infected with SARS-CoV-2	%	-0.52
OC(c1ccccc1)(c1ccccc1)C12CC[N+](CCOCc3ccccc3)(CC1)CC2	Vero E6 infected with SARS-CoV-2	%	1.64
CCCC[C@H]1C(=O)N(c2ccccc2)N(c2ccc(O)cc2)C1=O	Vero E6 infected with SARS-CoV-2	%	10.9
CN(C)CCCOc1nn(Cc2ccccc2)c2ccccc12	Vero E6 infected with SARS-CoV-2	%	-0.14
Fc1ccc(C(c2ccc(F)cc2)N2CCN(C/C=C/c3ccccc3)CC2)cc1	Vero E6 infected with SARS-CoV-2	%	-3.88
CO[C@@H]1[C@H](N(C)C(=O)c2ccccc2)C[C@H]2O[C@]1(C)n1c3ccccc3c3c4c(c5c6ccccc6n2c5c31)C(=O)NC4	Vero E6 infected with SARS-CoV-2	%	-31.5
Cn1c2c(c3ccccc31)CCNCC2	Vero E6 infected with SARS-CoV-2	%	-0.01
CC(COc1ccccc1)NC(C)C(O)c1ccc(O)cc1 (stereo unspecified)	Vero E6 infected with SARS-CoV-2	%	-1.14
CCOC(=O)[C@@H](N)CCC(=O)N[C@@H](CSCc1ccccc1)C(=O)N[C@@H](C(=O)OCC)c1ccccc1	Vero E6 infected with SARS-CoV-2	%	0.41
NCC1OC(C23CC4CC(CC(C4)C2)C3)Cc2c1ccc(O)c2O (stereo unspecified)	Vero E6 infected with SARS-CoV-2	%	-6.39
CC(C)N(CC[C@H](c1ccccc1)c1cc(CO)ccc1O)C(C)C [5-hydroxymethyl-tolterodine]	Vero E6 infected with SARS-CoV-2	%	-3.28
Cc1c(N(C)C)c(=O)n(-c2ccccc2)n1C	Vero E6 infected with SARS-CoV-2	%	-11.7
CN1[C@@H]2C[C@@H](O)C[C@H]1[C@@H]1O[C@@H]12	Vero E6 infected with SARS-CoV-2	%	-0.8
O=c1cc(-c2cccc3c2Sc2ccccc2S3)oc(N2CCOCC2)c1	Vero E6 infected with SARS-CoV-2	%	-1.33
COc1ccc2cc(CCC(C)=O)ccc2c1	Vero E6 infected with SARS-CoV-2	%	-0.03
CCOC(=O)[C@H](CCc1ccccc1)N[C@@H](C)C(=O)N1[C@H](C(=O)O)C[C@@H]2CCC[C@@H]21	Vero E6 infected with SARS-CoV-2	%	-2.38
CCn1cc(C(=O)O)c(=O)c2ccc(C)nc21	Vero E6 infected with SARS-CoV-2	%	-0.57
CC12CCC(C(=O)N(CCCCN3CCN(c4ccccn4)CC3)C1=O)C2(C)C (stereo unspecified)	Vero E6 infected with SARS-CoV-2	%	1.64
N[C@@H](CSS(=O)(=O)O)C(=O)O	Vero E6 infected with SARS-CoV-2	%	0.23
c1ccc(-c2ccc(CNc3nc(-c4ccccn4)nnc3-c3ccccc3)cc2)cc1	Vero E6 infected with SARS-CoV-2	%	-14.7
NC1=N[C@@]2(c3cc(NC(=O)c4ccc(F)cn4)ccc3F)COC[C@H]2CS1	Vero E6 infected with SARS-CoV-2	%	-4.47
CC(C)C[C@H](NC(=O)N1CCCCCC1)C(=O)N[C@H](Cc1cn(C)c2ccccc12)C(=O)N[C@H](Cc1ccccn1)C(=O)O	Vero E6 infected with SARS-CoV-2	%	2.44
CC(C)NCC(O)COc1cccc2[nH]ccc12 (stereo unspecified)	Vero E6 infected with SARS-CoV-2	%	-1.61
COC1(C2=NCCN2)COc2ccccc2O1 (stereo unspecified)	Vero E6 infected with SARS-CoV-2	%	1.58
COc1ccc2c(c1)/C(=C/c1cnc[nH]1)C(=O)N2	Vero E6 infected with SARS-CoV-2	%	6.28
